# Study system: GABA-A receptor; alpha-1/beta-3/gamma-2 (Homo sapiens, UniProt P14867+P18507+P28472)
# Measurement protocol: Inhibition of [3H]Ro-151788 binding to recombinant human gamma-aminobutyric-acid A receptor alpha-1-beta-3-gamma-2 subtype expressed in L (tk-) cells
# Ki values compiled below

- Structure string: "N#Cc1cccc(COc2nn3c(-c4ccccc4)nnc3c3c2C2CCC3CC2)c1"
  Ki: "> 1000 nM"
- Structure string: "c1ccc(-c2nnc3c4c(c(OCc5ccsc5)nn23)C2CCC4CC2)cc1"
  Ki: "> 500 nM"
- Structure string: "O=C(Nc1ccccn1)c1nn2c(-c3ccccc3)nnc2c2c1C1CCC2CC1"
  Ki: "> 1000 nM"
- Structure string: "Cc1csc(-c2nnc3c4c(c(OCc5ccccn5)nn23)C2CCC4CC2)n1"
  Ki: "> 1000 nM"
- Structure string: "c1ccc(COc2nn3c(N4CCOCC4)nnc3c3c2C2CCC3CC2)nc1"
  Ki: "> 1000 nM"

----------
# Study system: GABA-A receptor; alpha-3/beta-3/gamma-2 (Homo sapiens) (UniProt P18507+P28472+P34903)
# Measurement protocol: Efficacy was measured as modulation of the current in response to GABA at hGABA alpha-3-beta-3-gamma-2 receptor expressed in Xenopus oocytes
# Type: cell-based
# Recorded conditions: Oocyte
# Efficacy >= 50% gives Y, anything below gives N

- Structure string: "COCCOc1cccnc1COc1nn2c(-c3ccccc3)nnc2c2c1C1CCC2CC1"
  Label: "Y"
- Structure string: "COc1ccc(-c2nnc3c4c(c(OCc5ccccn5)nn23)C2CCC4CC2)cc1"
  Label: "N"
- Structure string: "CCCn1cnc(COc2nn3c(-c4ccccc4)nnc3c3c2C2CCC3CC2)n1"
  Label: "Y"
- Structure string: "CCCc1cccnc1COc1nn2c(-c3ccccc3)nnc2c2c1C1CCC2CC1"
  Label: "Y"

----------
# Study system: GABA-A receptor; alpha-1/beta-3/gamma-2 (Homo sapiens, UniProt P14867+P18507+P28472)
# Sequence (P14867 whole entry): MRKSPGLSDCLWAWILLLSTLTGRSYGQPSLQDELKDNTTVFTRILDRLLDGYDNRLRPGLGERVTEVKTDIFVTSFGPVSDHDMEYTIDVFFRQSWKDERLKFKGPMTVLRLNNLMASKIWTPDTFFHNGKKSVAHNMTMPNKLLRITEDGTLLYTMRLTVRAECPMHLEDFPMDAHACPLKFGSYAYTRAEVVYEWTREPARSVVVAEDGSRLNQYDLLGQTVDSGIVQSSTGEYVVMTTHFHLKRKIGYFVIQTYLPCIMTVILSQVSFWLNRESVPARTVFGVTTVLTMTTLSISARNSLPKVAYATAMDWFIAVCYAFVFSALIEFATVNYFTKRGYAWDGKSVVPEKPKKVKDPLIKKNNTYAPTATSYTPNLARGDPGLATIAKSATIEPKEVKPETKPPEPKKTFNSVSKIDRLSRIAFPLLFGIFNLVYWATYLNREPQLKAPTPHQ
# Sequence (P18507 whole entry): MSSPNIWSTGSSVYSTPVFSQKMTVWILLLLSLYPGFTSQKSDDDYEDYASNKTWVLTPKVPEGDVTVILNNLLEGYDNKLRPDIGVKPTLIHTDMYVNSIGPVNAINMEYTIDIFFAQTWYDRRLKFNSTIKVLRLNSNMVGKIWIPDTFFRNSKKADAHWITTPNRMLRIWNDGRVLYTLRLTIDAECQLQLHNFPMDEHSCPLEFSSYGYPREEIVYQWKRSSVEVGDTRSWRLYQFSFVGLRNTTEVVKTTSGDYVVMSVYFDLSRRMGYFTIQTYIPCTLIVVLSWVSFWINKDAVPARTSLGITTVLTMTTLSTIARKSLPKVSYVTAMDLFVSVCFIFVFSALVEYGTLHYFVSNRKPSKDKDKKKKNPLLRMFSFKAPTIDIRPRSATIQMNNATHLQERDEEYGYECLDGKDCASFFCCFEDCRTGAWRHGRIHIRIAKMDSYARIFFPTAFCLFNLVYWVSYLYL
# Sequence (P28472 whole entry): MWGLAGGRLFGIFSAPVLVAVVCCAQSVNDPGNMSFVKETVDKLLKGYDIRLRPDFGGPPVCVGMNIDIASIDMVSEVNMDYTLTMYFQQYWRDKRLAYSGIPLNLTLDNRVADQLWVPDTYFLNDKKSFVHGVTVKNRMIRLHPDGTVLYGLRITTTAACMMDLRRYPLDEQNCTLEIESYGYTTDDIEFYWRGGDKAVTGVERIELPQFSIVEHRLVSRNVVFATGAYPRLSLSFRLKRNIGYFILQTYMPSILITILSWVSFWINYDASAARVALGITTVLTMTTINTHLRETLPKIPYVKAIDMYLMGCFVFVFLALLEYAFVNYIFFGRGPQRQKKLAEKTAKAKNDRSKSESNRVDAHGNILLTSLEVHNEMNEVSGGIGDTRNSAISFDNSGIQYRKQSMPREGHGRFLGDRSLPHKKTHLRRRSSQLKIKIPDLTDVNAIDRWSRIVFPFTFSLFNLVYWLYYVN
# Measurement protocol: Inhibition of [3H]Ro-151788 binding to recombinant human gamma-aminobutyric-acid A receptor alpha-1-beta-3-gamma-2 subtype expressed in L (tk-) cells
pKi: −log10 of the molar value.

- Compound: "c1ccc(-c2nnc3c4c(c(OCc5ccccn5)nn23)C2CCC4CC2)cc1"
  Value modifier: "="
  pKi: 7.15
- Compound: "Fc1ccc(-c2nnc3c4c(c(OCc5ccccn5)nn23)C2CCC4CC2)cc1"
  Value modifier: "="
  pKi: 6.51
- Compound: "c1ccc(-c2nnc3c4c(c(OCCc5ccccn5)nn23)C2CCC4CC2)cc1"
  Value modifier: "="
  pKi: 6.32
- Compound: "OCCCOc1nn2c(-c3ccccc3)nnc2c2c1C1CCC2CC1"
  Value modifier: "="
  pKi: 6.19
- Compound: "FC(F)(F)Oc1ccc(COc2nn3c(-c4ccccc4)nnc3c3c2C2CCC3CC2)cc1"
  Value modifier: "<"
  pKi: 6.30
- Compound: "c1ccc(-c2nnc3c4c(c(OCc5ccncc5)nn23)C2CCC4CC2)cc1"
  Value modifier: "="
  pKi: 6.85
- Compound: "Cn1nnc(COc2nn3c(-c4ccccc4)nnc3c3c2C2CCC3CC2)n1"
  Value modifier: "="
  pKi: 7.22
- Compound: "c1ccc(COc2nn3c(-c4ccncc4)nnc3c3c2C2CCC3CC2)nc1"
  Value modifier: "<"
  pKi: 6.00
- Compound: "Cc1ccccc1-c1nnc2c3c(c(OCc4ccccn4)nn12)C1CCC3CC1"
  Value modifier: "<"
  pKi: 6.00
- Compound: "CCn1ccnc1COc1nn2c(-c3ccccc3)nnc2c2c1C1CCC2CC1"
  Value modifier: "="
  pKi: 8.48
- Compound: "c1ccc(-c2nnc3c4c(c(OCc5nc6ccccc6s5)nn23)C2CCC4CC2)cc1"
  Value modifier: "<"
  pKi: 6.00
- Compound: "OCC1CCC(COc2nn3c(-c4ccccc4)nnc3c3c2C2CCC3CC2)CC1 (trans isomer)"
  Value modifier: "="
  pKi: 6.82
- Compound: "Cc1scnc1COc1nn2c(-c3ccccc3)nnc2c2c1C1CCC2CC1"
  Value modifier: "="
  pKi: 7.46
- Compound: "c1ccc(COc2nn3c(-c4ccco4)nnc3c3c2C2CCC3CC2)nc1"
  Value modifier: "="
  pKi: 6.57
- Compound: "c1ccc(-c2nnc3c4c(c(OCc5ncc[nH]5)nn23)C2CCC4CC2)cc1"
  Value modifier: "="
  pKi: 7.28
- Compound: "O=C1CCC(COc2nn3c(-c4ccccc4)nnc3c3c2C2CCC3CC2)N1 (stereo not given)"
  Value modifier: "="
  pKi: 6.14
- Compound: "OCCCCOc1nn2c(-c3ccccc3)nnc2c2c1C1CCC2CC1"
  Value modifier: "="
  pKi: 7.15
- Compound: "OCC1CCC(COc2nn3c(-c4ccccc4)nnc3c3c2C2CCC3CC2)CC1 (stereo in doubt)"
  Value modifier: "<"
  pKi: 6.00
- Compound: "c1ccc(-c2nnc3c4c(c(OCc5nccs5)nn23)C2CCC4CC2)cc1"
  Value modifier: "="
  pKi: 7.00
- Compound: "c1ccc(COc2nn3c(-c4ccccc4)nnc3c3c2C2CCC3CC2)cc1"
  Value modifier: "<"
  pKi: 6.00
